The values you see were collected from PubChem BioAssay (NCI).

# Tested on: HT29 colon
# measurement_description: NCI tumour cell line growth inhibition, 48 h
Listed here: items and their measured TGI.

molecule	TGI
CC(C)C1=CC(=O)C(C)(C2C(O)CC3(C)C4CC=C5C(CCC(OC6OC(CO)C(O)C(O)C6OC6OC(C)C(O)C(O)C6O)C5(C)C)C4(C)C(=O)CC23C)O1 (stereo not given)	> 100 µM
O=C1NC(N2CCOCC2)=N/C1=C\c1ccc(Cl)cc1	> 100 µM
CCOC(=O)c1ccc(NC(=O)Nc2nncs2)cc1	10.9 µM
COc1cc(C2Cc3ncccc3-c3[nH]c(=O)c4cccnc4c32)cc(OC)c1OC (stereo not given)	> 100 µM
O=C(NCCCCCCCCCCCCNC(=O)c1cccc2ccccc12)c1cccc2ccccc12	> 100 µM
COc1ccc(/C=C/C(=O)c2cc(OC)c(OC)c(OC)c2)cc1OCC(=O)Nc1nc2ccc(OC(F)(F)F)cc2s1	79.4 µM
CC(C)(O)/C=C\P(=O)(O)O	> 100 µM
COc1ccc2c(c1OC)C[C@@H]1c3c(cc4c(c3-2)OCO4)CCN1C	41.3 µM
CC(O)(Cc1ccccc1C#N)Cc1ccccc1C#N	> 100 µM
O=c1[nH]c(Cc2ccccc2)nc2c1sc1nc3ccccc3n12	> 100 µM
